# System: COR-L23
# Assay Notes: relative viability (nuclei count vs DMSO), 5 days (fraction); higher = more cells survive
# Condition Parameters: first compound 4 µM
Experimental Readout: relative viability
Numbers only.

Molecule	relative viability
COc1cc(N2CCC(C(N)=O)CC2)ccc1Nc1nc(N)c(Cl)c(Nc2ccccc2S(=O)(=O)C(C)C)n1 [HG-5-88-01] + COc1cc2c(Oc3ccc(NC(=O)C4(C(=O)Nc5ccc(F)cc5)CC4)cc3F)ccnc2cc1OCCCN1CCOCC1 [Foretinib] (partner 0.25 µM)	0.805

--- query ---
Which relative viability value belongs to C[C@@H]1CN(CC(=O)Nc2ccc3c(c2)Cc2cccc(-c4cc(=O)cc(N5CCOCC5)o4)c2S3)C[C@H](C)O1 + CCNC(=O)c1noc(-c2cc(C(C)C)c(O)cc2O)c1-c1ccc(CN2CCOCC2)cc1 [Luminespib] (partner 0.01 µM) ?
0.458

* * *

Task for the reader: assign each of the following compounds its reported relative viability.
# System: LK-2
# Assay Notes: relative viability (nuclei count vs DMSO), 5 days (fraction); higher = more cells survive
# Condition Parameters: first compound 0.1265 µM
Answers are plain numbers.

Compound	Readout Value
COc1cc(N2CCC(C(N)=O)CC2)ccc1Nc1nc(N)c(Cl)c(Nc2ccccc2S(=O)(=O)C(C)C)n1 [HG-5-88-01] + Cc1nc(NC(=O)N2CCC[C@H]2C(N)=O)sc1-c1ccnc(C(C)(C)C(F)(F)F)c1 [Alpelisib] (partner 2 µM)	1.23

Kindly consider the entry below.
Any idea what relative viability was measured for C[C@@H]1CN(CC(=O)Nc2ccc3c(c2)Cc2cccc(-c4cc(=O)cc(N5CCOCC5)o4)c2S3)C[C@H](C)O1 + Cc1nc(Nc2ncc(C(=O)Nc3c(C)cccc3Cl)s2)cc(N2CCN(CCO)CC2)n1 [Dasatinib] (partner 0.075 µM) ?
0.301

* * *

# Tested on: PC-14
# Assay Notes: relative viability (nuclei count vs DMSO), 5 days (fraction); higher = more cells survive
# Condition Parameters: first compound 8 µM
Please go through the items and note down their relative viability.

Reference set, count: 4
Compound	Experimental Readout	Readout Value
CCCCCCCCCCCC1=C(O)C(=O)C=C(O)C1=O [Embelin] + Cc1nc(Nc2ncc(C(=O)Nc3c(C)cccc3Cl)s2)cc(N2CCN(CCO)CC2)n1 [Dasatinib] (partner 0.075 µM)	relative viability	0.315
CCCCCCCCCCCC1=C(O)C(=O)C=C(O)C1=O [Embelin] + CC(C)C[C@H](NC(=O)[C@H](Cc1ccccc1)NC(=O)c1cnccn1)B(O)O [Bortezomib] (partner 0.002 µM)	relative viability	0.87
CCCCCCCCCCCC1=C(O)C(=O)C=C(O)C1=O [Embelin] + CC(=O)Nc1cccc(-n2c(=O)n(C3CC3)c(=O)c3c(Nc4ccc(I)cc4F)n(C)c(=O)c(C)c32)c1 [Trametinib] (partner 0.02 µM)	relative viability	0.724
CCCCCCCCCCCC1=C(O)C(=O)C=C(O)C1=O [Embelin] + COc1cccc2cc(-c3nc([C@H]4CC[C@H](C(=O)O)CC4)n4ncnc(N)c34)[nH]c12 [OSI-027] (partner 0.5 µM)	relative viability	0.848

Reported relative viability for CCCCCCCCCCCC1=C(O)C(=O)C=C(O)C1=O [Embelin] + COc1cc2c(Oc3ccc(NC(=O)C4(C(=O)Nc5ccc(F)cc5)CC4)cc3F)ccnc2cc1OCCCN1CCOCC1 [Foretinib] (partner 0.25 µM) : what is it?
1.08
